- system: T1, TCE-11 (anti-CD3 scFv H101A; anti-TROP2 wt)
- T1 construct: scFv on the Fab heavy chain; also called TCE-11 (H101A)
- assayRemarks: competition ELISA, TCE on captured CD3
Where no end group is shown, it is not given here.
reportedMetric: IC50 (nM)
One number for each entry, in nM.

Look over these answered cases.
# binder, IC50 [nM]
rows = [
    ("GSACLGPEWEVCPY (cysteine pairing not given here; also: biotinylated, site not given here, mask peptide for the CD3 scFv) [Peptide-75]", 2080),
    ("QGCGTIADPEPHCW (cysteine pairing not given here; also: biotinylated, site not given here, mask peptide for the CD3 scFv) [Peptide-65]", 85000),
]

IN: Data request, read-out IC50, for AYCGPEFDESVGCM (cysteine pairing not given here; also: biotinylated, site not given here, mask peptide for the CD3 scFv) [Peptide-72]
OUT: 790
